# method: yeast display, Sf9 membrane polyspecificity reagent, FACS + sequencing; frameworks hold sequencing errors
attributeMeasured: polyreactivity (PSR sort gate)

Some entries whose results are on file:
QVQHVESGGGLVQAGGSLRLSCAASRLTFTRNAMGWYRQAPGKERELVAAITRSSGSTYYADSVKGRFTISRDNAKNTVYLQMNSLKPEDTAVYYCNARRAAYYHRARELDYWGQGTQVTVSS high polyreactivity
QVQLVESWGGLVQAGGSLRLSCAASGITFYVYAMGWYRQAPGKERELVAAISSGSSTYYADSVKGRFTISRDNAKKTVYLQMNSLKPEDTAVYYCAARYRKYLSEYWGQGTQVTVSS high polyreactivity
QVQLVESGAGLVQAGGSLRLSCAASGRTFHGYAMGWYRQAPRKERELLARINWSDGRTYYADSVKGRFTISRDNAKNTVFLQMNSLKPEDTAVYYCAADKTVSYAPAWYYYWGQGTQVTVSS low polyreactivity
QVQLVESGGGLVQAGGSLRLSCAASGRIFSTYAMGWYRQAPGKERELVAAISYSGTTTYYADSVKGRFTISRDNAKNTVYLQLNRLKPEDTAVYYCAAYRYSSWAYGRDYYWGQGTQVTVSS high polyreactivity

Query: Given the entry `QVQLVESGGGLVQAGGSLRLSCAASGRIFSPYAMGWYRQAPGKERELVAAINYSGSRTYYADSVTGRFTISRDNAKNTVYLQMNSLKPEDTAVYYCARPWAPSSRGNGYWGLGTQVTVSS` , report its measured polyreactivity (PSR sort gate).
Response: high polyreactivity

Query: Given the entry `QVQIVESGGGLVQAGGSLRLSCAASGFTIPRYAMGWYRQAPGKERELVAAISRAGRTYYADSVKGRFTISRDNAKNTVYLLMTSLKPEDTAVYYCNSQYLKPGDYWGHGTQVTVSS` , report its measured polyreactivity (PSR sort gate).
Response: high polyreactivity

Query: Given the entry `PVQLVESGGGLVQAGGSLRLSCAASGFTFRPYAMGWYRPAPGTERELVAAITSGDSTNYADSVKGRFTISRDNAKKTVYLQMNSLKPEDTAVYYCAADSTGRPSVSYDYWGQGTQVTVSS` , report its measured polyreactivity (PSR sort gate).
Response: low polyreactivity

Query: Given the entry `QVQLVESGGGVVQAGRSLRISCAASGSTFRGYAMGWYRQAPGKDRELVATISGSDGTTYYADSVKGRFTISRDYAKNTVYLQMNCLNPEDTAVFYCDAGESFEMYYWGQGSQVTVSS` , report its measured polyreactivity (PSR sort gate).
Response: low polyreactivity

---

# method: yeast display, Sf9 membrane polyspecificity reagent, FACS + sequencing; frameworks hold sequencing errors
attributeMeasured: polyreactivity (PSR sort gate)

QVQLVESGGGLVQAGGRLRLSCAASGRIFYGNAMGRYRPAPVKERELVATISSSGGSTTYADSVKGRFTISRDNAKYTVYLQMNSLKPEDSAVYYCADQGYWTGYDYWGQGSQVTVSS high polyreactivity
QVQLVESGGGLVQAGGSLRLSCAASGSIFKPYAMGWYRQAPGKERELVAAISRSGSTYYADSVKGRFTISRDNAKNSVYLQMNSLKPEVTAVFYCAAETQARWRRYDYWGQGSQVTVSS low polyreactivity
QVQLVESGGGLVQAGGSLRLSCAASGAIFELNAMGWYRQAPGKERELVAAIRWRTGRTYYADSVKGRFTISRDNAKNTVYLQMNSLKPEDTAVYYCAAPVRSGVRYTLDYWGQGTQVTVSS high polyreactivity
QVQLVESGGGLDQAGGSLRLSCAASGSTFSRNAMGWYRQAPGKERELVAGISYIGGRTYYADSVKGRFTISRDNAKNTVYLQMNSLKPEDTAVYYCNVVPKSRDWQSYGSWGQGTQVTVSS high polyreactivity

Query: Given the entry `QVQLVESGGGLVQAGGSHRLSCAASGSTVGRNAMGWYGQAPGKERELVAAITASGGTTYYADSVKGRFTISRDNAKNTVYLQMNSLKPEDTAVYYCARAGHFSFKYDYWGQGTQVTVSS` , report its measured polyreactivity (PSR sort gate).
Response: low polyreactivity
